Where do the numbers come from? From PubChem BioAssay (NCATS).

Assay: qHTS for differential inhibitors of proliferation of Plasmodium falciparum line GB4 (AID 1816);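 note: parasite growth measured after 72 h incubation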
Conditions: Plasmodium falciparum GB4 proliferation inhibition; series mostly up to 28.7 µM
Inconclusive results are not listed. Active and inactive are the calls of the source. Calls come from the whole dose curve; as a rule, active = well fitted curve in the direction sought with a large enough effect; inconclusive = small, poorly fitted or top-dose-only effect, or another doubt; inactive = no such curve, though single readings can be large or run the other way.
Classes used: active, inactive

INSERT INTO assay_data (compound, qualitativelabel) VALUES
  ('CC(=O)[C@]1(O)Cc2c(O)c3c(c(O)c2[C@@H](O[C@H]2C[C@H](N)[C@H](O)[C@H](C)O2)C1)C(=O)c1ccccc1C3=O', 'active'),
  ('C[n+]1cc2c3c(ccc2c2ccc4cc5c(cc4c21)OCO5)OCO3', 'active'),
  ('C=CCc1ccccc1OCC(O)CNC(C)C (stereo unspecified)', 'active'),
  ('CC[N+](C)(C)c1cccc(O)c1', 'inactive'),
  ('O=C(CCCN1CCC(O)(c2cccc(C(F)(F)F)c2)CC1)c1ccc(F)cc1', 'active'),
  ('CCOC(=O)C1=C(C)NC(C)=C(C(=O)OC)C1c1cccc([N+](=O)[O-])c1 (stereo unspecified)', 'active'),
  ('CC(C)(C)NCC(O)c1cc(O)cc(O)c1 (stereo unspecified)', 'inactive'),
  ('CCCCNC(=O)NS(=O)(=O)c1ccc(C)cc1', 'inactive'),
  ('CSc1ccc(C(=O)c2[nH]c(=O)[nH]c2C)cc1', 'inactive'),
  ('CCCN(CCC)CCc1cccc2c1CC(=O)N2', 'inactive'),
  ('CN(C)C(=O)Oc1ccc[n+](C)c1', 'inactive');

---

Test system: PA-1
Test: Primary qHTS to identify gynecologic anti-cancer compounds using libraries of approved drugs and bioactive compounds (AID 1345084); note: % is set by controls: 0 for no effect and ±100 for the full control effect; nearly all actives have a fitted effect of over 55% in size
Conditions: Gynecologic cancer cell panel viability, ATPlite luminescence, 48 h; series mostly up to 57.5 µM
Records with an inconclusive call do not appear. Calls of active or inactive are those of the source. Calls follow the shape of the dose curve; as a rule, active = well fitted cell-killing curve with a large enough effect; inconclusive = small, poorly fitted or top-dose-only effect, or effect the other way; inactive = flat fitted curve, though single readings scatter.
assayReadout: activity change, negative = cytotoxicity

INSERT INTO results (compound, assayvalue) VALUES
  ('CN1CCN(CC(=O)N2c3ccccc3C(=O)Nc3cccnc32)CC1', '18.1% [at 6.55 µM] (inactive)'),
  ('NC(=O)c1cn(Cc2c(F)cccc2F)nn1', 'inactive'),
  ('CN(C)CC/C=C1\c2ccccc2COc2ccccc21', 'inactive'),
  ('COC(=O)C1=C(C)NC(C)=C(C(=O)OC(C)(C)CN(C)CCC(c2ccccc2)c2ccccc2)C1c1cccc([N+](=O)[O-])c1 (stereo not given)', 'inactive'),
  ('O=c1[nH]c(=O)n([C@H]2C[C@H](O)[C@@H](CO)O2)cc1Br', 'inactive');

---

Assay: qHTS Assay for Lipid Storage Modulators (AID 1519); note: % is set by controls: 0 for no effect and ±100 for the full control effect
Conditions: Drosophila S3 cells, BODIPY lipid droplet/cell ratio, laser cytometry; at 57.5 µM (top of the series); cells loaded with oleic acid
Inconclusive results are not listed. Calls of active or inactive are those of the source. The call rests on the fitted dose curve.
molecules and their reported activity change, negative = inhibition
assayReadout: activity change, negative = inhibition

INSERT INTO assay_data (molecule, assayvalue) VALUES
  ('Cc1ccc(S(=O)(=O)NC(=O)NN2CCCCCC2)cc1', '9.8% (inactive)'),
  ('CCCN(CCC)C(=O)C(CCC(=O)O)NC(=O)c1ccccc1 (configuration not stated)', '2.72% (inactive)'),
  ('NC(Cc1ccc(Cl)cc1)C(=O)O (configuration not stated)', '7.45% (inactive)'),
  ('FC(F)(F)c1ccccc1-n1ccnc1', '7.35% (inactive)'),
  ('Cc1nc2sccn2c(=O)c1CCN1CCC(=C(c2ccc(F)cc2)c2ccc(F)cc2)CC1', '-1.04% (inactive)'),
  ('CCn1ccnc1CC1COc2ccccc2O1 (configuration not stated)', '1.49% (inactive)'),
  ('CN(C)CC/C=C1\c2ccccc2COc2ccccc21', '2.32% (inactive)'),
  ('CC(C(=O)O)c1ccc(CC2CCCC2=O)cc1 (configuration not stated)', '-1.18% (inactive)'),
  ('CC1=C(C)C(=O)C(CCCCC#CCCCC#CCO)=C(C)C1=O', '1.13% (inactive)'),
  ('CCCCNc1c(C(=O)OCC)c(C)nc2c1cnn2CC', '-16.8% (inactive)'),
  ('O=C(O)CN(CCOCCOCCN(CC(=O)O)CC(=O)O)CC(=O)O', '0.929% (inactive)'),
  ('CCn1nc(C(=O)O)c(=O)c2cc3c(cc21)OCO3', '13.5% (inactive)'),
  ('CCNC(=O)N1CCN(CCCC(c2ccc(F)cc2)c2ccc(F)cc2)CC1', '-0.161% (inactive)'),
  ('CC(=O)Nc1nnc(S(N)(=O)=O)s1', '-0.868% (inactive)'),
  ('CCCCCCCC/C=C\CCCCCCCC(=O)NCc1ccc(O)c(OC)c1', '-24.2% (inactive)'),
  ('CCn1cc(C(=O)O)c(=O)c2cc3c(cc21)OCO3', '2.77% (inactive)'),
  ('NC(N)=NC(=O)Cc1c(Cl)cccc1Cl', '1.08% (inactive)'),
  ('c1cnc(N2CCN(Cc3ccc4c(c3)OCO4)CC2)nc1', '2.74% (inactive)'),
  ('CCN(CC)CC(=O)Nc1c(C)cccc1C', '2.9% (inactive)'),
  ('CN(C)CCCN1c2ccccc2Sc2ccc(C(F)(F)F)cc21', '3.48% (inactive)'),
  ('Cc1ccc(=O)n(-c2ccccc2)c1', '1.81% (inactive)'),
  ('O=C(CCNNC(=O)c1ccncc1)NCc1ccccc1', '1.21% (inactive)'),
  ('OC(CCN1CCCCC1)(c1ccccc1)C1CCCCC1 (configuration not stated)', '1.74% (inactive)'),
  ('O=C(O)CN(CCN(CC(=O)O)CC(=O)O)CCN(CC(=O)O)CC(=O)O', '0.152% (inactive)'),
  ('Fc1ccc(C(c2ccc(F)cc2)N2CCN(C/C=C/c3ccccc3)CC2)cc1', '-1.34% (inactive)'),
  ('C=CCc1ccccc1OCC(O)CNC(C)C (configuration not stated)', '0.138% (inactive)'),
  ('CCCCCN(CCCCC)C(=O)C(CCC(=O)O)NC(=O)c1ccc(Cl)c(Cl)c1 (configuration not stated)', '2.8% (inactive)'),
  ('CCCCNc1ccc(C(=O)OCCN(C)C)cc1', '14.3% (inactive)'),
  ('OCCN1CCN(CCCN2c3ccccc3C=Cc3ccccc32)CC1', '-1.21% (inactive)'),
  ('CC(C)COCC(CN(Cc1ccccc1)c1ccccc1)N1CCCC1 (configuration not stated)', '2.08% (inactive)'),
  ('CN(C)CCN(Cc1cccs1)c1ccccn1', '3.3% (inactive)'),
  ('NC/C=C/C(=O)O', '6.98% (inactive)');
